Sourced from ChEMBL document CHEMBL5143753

assay: Selectivity index, ratio of CC50 for human THP1 cells to IC50 for antitrypanosomal activity against Trypanosoma brucei brucei Lister 427 bloodstream forms; format: toxicity; details: read-out: Ratio CC50/IC50
assayEndpoint: selectivity ratio
Quick one: just the number, no unit, thanks!

structureassmiles=OCCCOc1cccc(Nc2ncnc3c(N/N=C/c4cc(O)c(O)c(O)c4)ncnc23)c1 numericreadout=15

Consider the compound COc1cc(/C=N/Nc2ncnc3c(Nc4cccc(OCCCO)c4)ncnc23)ccc1O and give its recorded selectivity ratio.
1

Look up and state reported selectivity ratio for COc1cc(/C=N/Nc2ncnc3c(Nc4cccc(OCCCO)c4)ncnc23)cc(OC)c1OC
8

Could you please provide reported selectivity ratio for OCCCOc1cccc(Nc2ncnc3c(N/N=C/c4ccc(O)c(O)c4)ncnc23)c1 ? Thanks!
4

Identify selectivity ratio associated with the compound COc1ccc(/C=N/Nc2ncnc3c(Nc4ccc(OCCCO)cc4)ncnc23)cc1O
19

Supply reported selectivity ratio belonging to this compound: OCCCOc1cccc(Nc2ncnc3c(N/N=C/c4ccc(O)cc4)ncnc23)c1
8

Read off the recorded selectivity ratio for COc1ccc(/C=N/Nc2ncnc3c(Nc4cccc(OCCCO)c4)ncnc23)cc1O
8

Report selectivity ratio, nothing else, for this compound: COc1cc(/C=N/Nc2ncnc3c(Nc4ccc(OCCCO)cc4)ncnc23)ccc1O
14

# return recorded selectivity ratio for entry OCCCOc1ccc(Nc2ncnc3c(N/N=C/c4ccc(O)cc4)ncnc23)cc1
3

----------
test: Cytotoxicity in human THP-1 cells assessed as reduction in cell viability incubated for 48 hrs hrs by MTT assay; type: toxicity, cell-based
assayEndpoint: CC50 at 48 h (µM)
Express the result in µM but write the number alone.

compound=OCCCOc1cccc(Nc2ncnc3c(N/N=C/c4cc(O)c(O)c(O)c4)ncnc23)c1 numericreadout=50
compound=COc1cc(/C=N/Nc2ncnc3c(Nc4cccc(OCCCO)c4)ncnc23)cc(OC)c1OC numericreadout=50
compound=OCCCOc1ccc(Nc2ncnc3c(N/N=C/c4ccc(O)c(O)c4)ncnc23)cc1 numericreadout=25
compound=OCCCOc1cccc(Nc2ncnc3c(N/N=C/c4ccc(O)cc4)ncnc23)c1 numericreadout=50
compound=COc1ccc(/C=N/Nc2ncnc3c(Nc4cccc(OCCCO)c4)ncnc23)cc1O numericreadout=50
compound=OCCCOc1ccc(Nc2ncnc3c(N/N=C/c4ccc(O)cc4)ncnc23)cc1 numericreadout=50

Input COc1cc(/C=N/Nc2ncnc3c(Nc4cccc(OCCCO)c4)ncnc23)cc(OC)c1O , output reported CC50 at 48 h.
50

----------
experiment: Selectivity index, ratio of CC50 for human THP1 cells to IC50 for antitrypanosomal activity against Trypanosoma brucei brucei Lister 427 bloodstream forms; format: toxicity; conditions: read-out: Ratio CC50/IC50
Listing of entries alongside the reported selectivity ratio.

Take a look at these entries with their results.
molecule=NNc1ncnc2c(Nc3cccc(OCc4ccncc4)c3)ncnc12 assayendpoint="selectivity ratio" result="> 107"
molecule=COc1cc(/C=N/Nc2ncnc3c(Nc4ccc(OCCCO)cc4)ncnc23)cc(OC)c1O assayendpoint="selectivity ratio" result=4

Now for another entry.
Please supply the value of reported selectivity ratio for the item N=C(N)c1ccc(OCCCCCOc2ccc(C(=N)N)cc2)cc1 [PENTAMIDINE]
12800

----------
assay: Cytotoxicity in human THP-1 cells assessed as reduction in cell viability incubated for 48 hrs hrs by MTT assay; format: toxicity, cell-based
CC50 at 48 h for assorted compounds

Example results:
compound=OCCCOc1cccc(Nc2ncnc3c(N/N=C/c4ccc(O)c(O)c4)ncnc23)c1 assayendpoint="CC50 at 48 h" result="25 µM"
compound=COc1ccc(/C=N/Nc2ncnc3c(Nc4cccc(OCCCO)c4)ncnc23)cc1OC assayendpoint="CC50 at 48 h" result="> 100 µM"
compound="CCCCCCCCCCCCCCCCOP(=O)([O-])OCC[N+](C)(C)C [MILTEFOSINE]" assayendpoint="CC50 at 48 h" result="30.9 µM"
compound=COc1cc(/C=N/Nc2ncnc3c(Nc4ccc(OCCCO)cc4)ncnc23)cc(OC)c1O assayendpoint="CC50 at 48 h" result="50 µM"

# context switch: different compound, same CC50 at 48 h
Using the record for COc1cc(/C=N/Nc2ncnc3c(Nc4ccc(OCCCO)cc4)ncnc23)cc(OC)c1OC , state its measured CC50 at 48 h.
> 100 µM
